- SYSTEM TESTED: T1, SARS-CoV-2 S1 (aa16-685) (Wuhan) (SARS-CoV-2 Wuhan, UniProt P0DTC2 16-685)
- T1 construct: NRC; FLAG, 6xHis tags
- MEASUREMENT DESCRIPTION: SPR, antigen on chip
Exercise: state measured pKd for each of the binders provided.
Answer as the number alone; pKd is minus log10 of concentration in mol/L.

For record NRCoV2-MRed03 VHH (VHH) VHH: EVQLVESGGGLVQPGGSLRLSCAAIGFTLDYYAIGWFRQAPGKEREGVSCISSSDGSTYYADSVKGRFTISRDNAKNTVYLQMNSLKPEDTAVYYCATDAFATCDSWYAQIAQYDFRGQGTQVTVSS the listed pKd is 9.65

Notebook: NRCoV2-MRed04 VHH (VHH) VHH: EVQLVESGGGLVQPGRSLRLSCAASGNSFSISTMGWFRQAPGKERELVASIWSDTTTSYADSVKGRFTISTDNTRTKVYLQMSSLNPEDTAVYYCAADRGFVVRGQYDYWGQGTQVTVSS , pKd read as 8.77

Input NRCoV2-MRed07 VHH (VHH) VHH: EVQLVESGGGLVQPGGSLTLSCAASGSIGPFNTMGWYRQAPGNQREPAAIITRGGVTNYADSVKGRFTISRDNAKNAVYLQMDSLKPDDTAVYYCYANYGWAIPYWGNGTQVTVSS . Output pKd: 9.42

Short answer for NRCoV2-MRed06 VHH (VHH) VHH: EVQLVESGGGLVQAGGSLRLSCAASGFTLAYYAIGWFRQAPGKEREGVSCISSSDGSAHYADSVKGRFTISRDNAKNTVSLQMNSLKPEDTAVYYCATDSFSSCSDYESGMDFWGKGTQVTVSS : pKd was 8.37
